Reference source: paper PMC10397247

Target: T1, P2-AA-12HGe-T
T1 chain: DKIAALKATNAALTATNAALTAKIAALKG
Assay: two-hybrid library CCmax;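 further: natural log of median RNA to DNA barcode read ratio; higher means stronger binding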
Conditions: mean of both orientations
measurement-label: interaction score

Observe how each entry below is paired with its result.
The binder identified as DEIAALEAKNAALKAKNAALKAEIAALEG [P1-AA-12HGe-K] registered its interaction score at -0.493

The binder identified as DEIAALEASNAALSASNAALSAEIAALEG [P1-AA-12HGe-S] registered its interaction score at -1.11

// field: interaction score; key: DEIAALEAWNAALWAWNAALWAEIAALEG [P1-AA-12HGe-W] ; value = -0.385

Value of interaction score reported for the binder DEIAALEAQNAALQAQNAALQAEIAALEG [P1-AA-12HGe-Q] is 1.03

Sample DEIAALEADNAALDADNAALDAEIAALEG [P1-AA-12HGe-D] ; interaction score observed: -1.52

Record summary for DEIAALEAANAALAAANAALAAEIAALEG [P1-AA-12HGe-A] : reported interaction score = 1.71

A = DEIAALEAENAALEAENAALEAEIAALEG [P1-AA]
B = DEIAALEAYNAALYAYNAALYAEIAALEG [P1-AA-12HGe-Y]
C = DEIAALEAHNAALHAHNAALHAEIAALEG [P1-AA-12HGe-H]
D = DEIAALEAMNAALMAMNAALMAEIAALEG [P1-AA-12HGe-M]
E = DEIAALEARNAALRARNAALRAEIAALEG [P1-AA-12HGe-R]
Qu. Ascending by interaction score, please: list the binders accordingly. Order the labels as requested and list them.
Ans. C, B, E, A, D
